STUDY TARGET: UniProt Q12809
Sequence (Q12809 whole entry): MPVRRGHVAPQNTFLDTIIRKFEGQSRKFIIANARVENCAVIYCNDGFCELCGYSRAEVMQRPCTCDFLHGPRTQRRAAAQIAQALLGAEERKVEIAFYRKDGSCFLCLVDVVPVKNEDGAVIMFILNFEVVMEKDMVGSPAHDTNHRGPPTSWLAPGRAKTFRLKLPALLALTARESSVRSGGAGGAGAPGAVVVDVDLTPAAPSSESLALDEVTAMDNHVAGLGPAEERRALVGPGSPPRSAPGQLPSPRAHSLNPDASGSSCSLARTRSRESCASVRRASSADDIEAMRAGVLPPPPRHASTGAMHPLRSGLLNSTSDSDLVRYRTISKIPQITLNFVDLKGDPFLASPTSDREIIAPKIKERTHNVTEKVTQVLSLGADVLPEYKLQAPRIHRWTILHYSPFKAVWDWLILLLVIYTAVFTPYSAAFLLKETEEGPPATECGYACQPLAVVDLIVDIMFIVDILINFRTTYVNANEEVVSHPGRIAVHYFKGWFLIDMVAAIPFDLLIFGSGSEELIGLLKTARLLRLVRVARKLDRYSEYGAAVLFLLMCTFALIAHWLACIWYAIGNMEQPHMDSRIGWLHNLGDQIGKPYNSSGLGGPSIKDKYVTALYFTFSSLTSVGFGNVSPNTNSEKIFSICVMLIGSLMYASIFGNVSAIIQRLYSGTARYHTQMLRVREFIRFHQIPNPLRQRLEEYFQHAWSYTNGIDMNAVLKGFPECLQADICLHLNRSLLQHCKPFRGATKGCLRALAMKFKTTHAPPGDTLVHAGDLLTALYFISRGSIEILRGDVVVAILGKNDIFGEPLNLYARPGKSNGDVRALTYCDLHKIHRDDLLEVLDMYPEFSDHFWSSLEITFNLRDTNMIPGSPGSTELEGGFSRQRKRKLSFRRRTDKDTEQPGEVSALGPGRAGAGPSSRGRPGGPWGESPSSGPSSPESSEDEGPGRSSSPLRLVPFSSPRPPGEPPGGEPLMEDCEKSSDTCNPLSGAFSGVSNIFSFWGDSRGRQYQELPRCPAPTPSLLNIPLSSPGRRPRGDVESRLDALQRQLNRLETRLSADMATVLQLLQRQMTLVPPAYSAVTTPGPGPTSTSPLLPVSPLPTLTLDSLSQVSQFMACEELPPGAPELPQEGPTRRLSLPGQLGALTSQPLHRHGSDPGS
PROTOCOL NOTES: in vitro

[
  {
    "COMPOUND": "C[C@H](C(=O)NCc1ccccc1)N1C(=O)CCC1=O [(R)-7]",
    "STUDY TARGET": "UniProt Q12809",
    "UNITS OF MEASURE": "%",
    "inhibition at 100 µM": -8.02
  }
]

----------
STUDY TARGET: human SV2A (Homo sapiens, UniProt Q7L0J3)
Sequence (Q7L0J3 whole entry): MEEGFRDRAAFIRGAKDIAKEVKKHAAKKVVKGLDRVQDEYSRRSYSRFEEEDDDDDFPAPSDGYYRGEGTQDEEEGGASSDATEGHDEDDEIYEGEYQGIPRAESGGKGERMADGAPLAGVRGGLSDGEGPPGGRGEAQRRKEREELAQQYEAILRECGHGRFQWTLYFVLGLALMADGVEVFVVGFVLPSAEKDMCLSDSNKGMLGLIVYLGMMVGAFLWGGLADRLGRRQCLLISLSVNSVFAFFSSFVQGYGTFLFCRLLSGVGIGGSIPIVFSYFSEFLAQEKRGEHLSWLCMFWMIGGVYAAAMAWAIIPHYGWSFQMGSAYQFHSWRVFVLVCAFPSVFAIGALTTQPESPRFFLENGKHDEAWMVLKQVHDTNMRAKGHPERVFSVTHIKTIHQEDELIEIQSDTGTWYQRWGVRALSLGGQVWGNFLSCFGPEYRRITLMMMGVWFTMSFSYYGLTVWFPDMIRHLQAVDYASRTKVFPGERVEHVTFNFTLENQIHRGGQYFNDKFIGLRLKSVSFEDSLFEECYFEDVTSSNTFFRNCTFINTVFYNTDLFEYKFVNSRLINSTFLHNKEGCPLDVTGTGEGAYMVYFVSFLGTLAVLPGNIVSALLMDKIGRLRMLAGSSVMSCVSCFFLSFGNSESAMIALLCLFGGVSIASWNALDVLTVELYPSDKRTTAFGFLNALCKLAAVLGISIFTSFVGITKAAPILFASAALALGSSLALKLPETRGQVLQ
PROTOCOL NOTES: SV2A radioligand binding assay ([3H]brivaracetam)
TEST CONDITIONS: [3H]brivaracetam 3 nM, human SV2A-expressing CHO cell lysate
pKi: −log10 of the molar value.

[
  {
    "COMPOUND": "C[C@@H](C(=O)NCc1ccccc1)N1C(=O)CCC1=O [(S)-7]",
    "pKi": 3.59
  }
]
